Assay Target: Human immunodeficiency virus type 1 integrase (Human immunodeficiency virus 1)
Sequence (Q7ZJM1 whole entry): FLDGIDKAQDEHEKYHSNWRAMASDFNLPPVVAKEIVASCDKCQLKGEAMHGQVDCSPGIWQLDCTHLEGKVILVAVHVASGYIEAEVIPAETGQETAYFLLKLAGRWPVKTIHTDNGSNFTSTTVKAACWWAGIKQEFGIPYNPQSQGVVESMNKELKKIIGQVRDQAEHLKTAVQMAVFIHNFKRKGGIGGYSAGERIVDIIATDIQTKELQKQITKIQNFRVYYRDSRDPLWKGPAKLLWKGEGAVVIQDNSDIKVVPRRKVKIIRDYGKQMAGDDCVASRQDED
Test Protocol: Inhibition of HIV1 integrase strand transfer activity
# IC50 per record follows

{"Molecule": "O=C(O)C(=O)CC(=O)c1cc(OCc2ccccc2)cc(OCc2ccccc2)c1", "IC50 / µM": 3.5}
{"Molecule": "N#C/C(=C(/O)C(=O)O)c1cn(-c2ccc(F)cc2)c2ccccc12", "IC50 / µM": 10}
{"Molecule": "N=C(N)c1ccc2cc(C#Cc3cccc(OCc4ccccc4)c3)ccc2c1", "IC50 / µM": 2.1}
{"Molecule": "CC(C)(C)C1CCC(C2=NCCc3ccc([C@H]4CC4c4ccc5cc(C(=N)N)ccc5c4)cc32)CC1 (some centres not stated)", "IC50 / µM": 3.4}
{"Molecule": "O=C(c1cc(Cc2ccccc2)cc(CN2CCCS2(=O)=O)c1)c1ncc2cccnc2c1O", "IC50 / µM": 10}
{"Molecule": "COc1cccc(CN(Cc2cccc(OC)c2)c2ccc3nc(N)[nH]c3c2)c1", "IC50 / µM": 1.8}
{"Molecule": "CC(C)S(=O)(=O)Nc1ccc2nc(N)[nH]c2c1", "IC50 / µM": 2.6}
